B1: CPEB3 Ribozyme (parent)
chain: GGGGGCCACAGCAGAAGCGUUCACGUCGCGGCCCCUGUCAGAUUCUGGUGAAUCUGCGAAUUCUGCUGU

variants of: B1; assay: self-cleavage, relative activity (ratio to wild type); higher = more cleavage; co-transcriptional
Here, each record is paired with measured self-cleavage data.
Number only, please.

U26A A40C :: 0.32
A16G U67G :: 0.951
G50U C63A :: 0.874
G4A U38A :: 0.761
G47U C54A :: 0.987
A8G U46A :: 0.99
C35U C57A :: 0.323
U53G C66A :: 0.629
G19U U43G :: 0.223
U36G C66A :: 0.232

Q) If you can, please state the reported self-cleavage value of C7G G25U .
A) 0.0759

Q) Requested read-out: self-cleavage. Entry: C45U G48U
A) 1.01

Q) Need self-cleavage of C29U U69G , thanks.
A) 0.737

Q) Which self-cleavage reading was recorded for the variant G14A C54A ?
A) 0.239

Q) Query: self-cleavage; subject: C22U G31C
A) 0.103

Q) self-cleavage for G3A C54A ?
A) 0.243

Q) // returns reported self-cleavage for input G14C G41U
A) 0.231

Q) Endpoint output: self-cleavage of U46G U55C . Value?
A) 0.936

Q) Which measured self-cleavage value corresponds to C45G A59U ?
A) 0.815

Q) Name the recorded self-cleavage for C22U G68C .
A) 0.517

Q) May I ask what self-cleavage has been recorded for U64G U69G ?
A) 1.02

Q) Name the recorded self-cleavage for A51G G68U .
A) 1.03
